Test system: SF-539 CNS
Assay: NCI-60 one-dose screen, 48 h (100 = growth as untreated, 0 = no growth, -100 = all killed)
Settings: 10 µM unless noted
Protocol: Cells are grown in 96 well plates and exposed to the test compound for 48 hours. Compounds are tested at a single concentration, which is 10^-5 M for most compounds. The reported endpoint is percent growth (GI% or GIPRCNT), where numbers from 0 - 100% represent growth inhibition, and numbers from -100% - 0 represent cell death. For example, a value of 40 represents 60% growth inhibition. A value of 0 means no net growth occurred over the course of the experiment. […]
The panel holds about 83,000 compounds, 20% with a hit somewhere; the sample as a whole holds those more often.
Entries and their growth
Observation type: growth (%)

[
  {
    "Compound": "COc1cccc(-c2nc3sccn3c2-c2ccnc(NCCNS(=O)(=O)c3ccccc3)c2)c1",
    "Observation type": "growth",
    "Units": "%",
    "Value reported": 66.9
  },
  {
    "Compound": "Cn1c(=O)c2c(nc3n(-c4ccc(Cl)cc4Cl)c(Sc4nc(-c5ccccc5)c(C#N)c(=O)[nH]4)cn23)n(C)c1=O",
    "Observation type": "growth",
    "Units": "%",
    "Value reported": 30.6
  },
  {
    "Compound": "FC(F)(F)c1ccc(-c2cn3nc(-c4c[nH]c5ccc(Br)cc45)sc3n2)cc1",
    "Observation type": "growth",
    "Units": "%",
    "Value reported": 101
  },
  {
    "Compound": "Cn1cc(-c2nonc2-c2c[nH]c3ccc(F)cc23)c2cccnc21",
    "Observation type": "growth",
    "Units": "%",
    "Value reported": 88.7
  },
  {
    "Compound": "O=C1NC(=S)N[C@H]1CC(=O)n1cnc2ccccc21",
    "Observation type": "growth",
    "Units": "%",
    "Value reported": 99
  },
  {
    "Compound": "C(=C\\c1nccc2c1[nH]c1ccccc12)/c1ccccc1",
    "Observation type": "growth",
    "Units": "%",
    "Value reported": 7.92
  },
  {
    "Compound": "O=[N+]([O-])c1cnc(N2CCN(CC3CC3)CC2)nc1N1CCN(CC2CC2)CC1",
    "Observation type": "growth",
    "Units": "%",
    "Value reported": 90.8
  },
  {
    "Compound": "FC(F)(F)Oc1ccc2nc3nc4ccc[nH]c4cc3c2c1",
    "Observation type": "growth",
    "Units": "%",
    "Value reported": 84.8
  },
  {
    "Compound": "Cc1cc(N2CCN(C)CC2)nc(NC2CCCC(Nc3ccnc4cc(Cl)ccc34)C2)n1 (stereo not given)",
    "Observation type": "growth",
    "Units": "%",
    "Value reported": -84.3
  },
  {
    "Compound": "COc1cc2c(cc1-c1c(C)noc1C)ncc1nc(C3CCOCC3)n([C@@H](C)COC(F)F)c12",
    "Observation type": "growth",
    "Units": "%",
    "Value reported": 31.8
  }
]

----------
Tested on: SW-620 colon
Test: NCI-60 one-dose screen, 48 h (100 = growth as untreated, 0 = no growth, -100 = all killed)
Details: 10 µM unless noted
The panel holds about 83,000 compounds, 20% with a hit somewhere; the sample as a whole holds those more often. Active and inactive are the calls of the source. Rule for the calls: active = growth percent below 10; inactive = the rest.

[
  {
    "Molecule": "Cc1ccc2c(C(C[N+](=O)[O-])c3ccccc3)c(-c3ccccc3)[nH]c2c1 (stereo not given)",
    "growth": "13.7% [9.5 µM] (inactive)"
  },
  {
    "Molecule": "CCOC(=O)c1c(C(=O)OCC)c2cc(-c3ccn4c(C(=O)c5ccccc5)c(C(=O)OCC)c(C(=O)OCC)c4c3)ccn2c1C(=O)c1ccccc1",
    "growth": "105% (inactive)"
  },
  {
    "Molecule": "O=C1NC(=Nc2ccc(O)cc2)S/C1=C\\c1cccc(Cl)c1",
    "growth": "30.7% (inactive)"
  },
  {
    "Molecule": "C=C1c2nc3ccccc3n2C=C(c2cccc(Cl)c2)N1Cc1ccc(OC)cc1",
    "growth": "20.6% (inactive)"
  },
  {
    "Molecule": "CCC(=O)c1ccc(Cl)s1",
    "growth": "104% (inactive)"
  },
  {
    "Molecule": "Cn1cc(-c2nonc2-c2c[nH]c3ccc(F)cc23)c2cccnc21",
    "growth": "97.3% (inactive)"
  },
  {
    "Molecule": "O=CNc1ccc2c(c1)Cc1cccc(NC=O)c1-2",
    "growth": "98.2% (inactive)"
  },
  {
    "Molecule": "O=c1cc(CSc2nnc(SCc3cc(=O)oc4c3ccc3ccccc34)o2)c2ccc3ccccc3c2o1",
    "growth": "98.1% (inactive)"
  },
  {
    "Molecule": "Cc1cc(Nc2ccc(C)c(Cl)c2)n2nc(C(F)(F)F)nc2n1",
    "growth": "40.6% (inactive)"
  },
  {
    "Molecule": "O=C1Nc2cc(-c3ccc(O)cc3)ccc2/C1=C/c1ccc[nH]1",
    "growth": "14.1% (inactive)"
  }
]
